system: Enterobacterales; assay: MIC, broth microdilution, CDC/FDA Antibiotic Resistance Isolate Bank (Example 7, Tables 8, 11, 12); type: cell-based; conditions: Klebsiella pneumoniae, Klebsiella pneumoniae KUB No. 5797, AR Bank #453; read-out: MIC
# key: entry, value: MIC
Your answer should be a plain number; it is taken to be in µg/mL.

Some solved entries appear below for comparison.
INSERT INTO assay_data (molecule, experimental_endpoint, reported_value) VALUES
  ('C[C@H]1COc2c(N3CCN(C)CC3)c(F)cc3c(=O)c(C(=O)O)cn1c23 [Levofloxacin, levofloxacin]', 'MIC', 64),
  ('NCC[C@H](O)C(=O)N[C@@H]1C[C@H](N)[C@@H](O[C@H]2O[C@H](CN)[C@@H](O)[C@H](O)[C@H]2O)[C@H](O)[C@H]1O[C@H]1O[C@H](CO)[C@@H](O)[C@H](N)[C@H]1O [Amikacin, amikacin]', 'MIC', 32);

Return reported MIC. Input molecule: CC(C)(O/N=C(\C(=O)N[C@@H]1C(=O)N2C(C(=O)[O-])=C(C[N+]3(CCNC(=O)c4ccc(O)c(O)c4Cl)CCCC3)CS[C@H]12)c1csc(N)n1)C(=O)O [Cefiderocol, cefiderocol] 0.25
